Target: T1, interleukin-23 receptor (IL-23R), Q5VWK5
T1 chain: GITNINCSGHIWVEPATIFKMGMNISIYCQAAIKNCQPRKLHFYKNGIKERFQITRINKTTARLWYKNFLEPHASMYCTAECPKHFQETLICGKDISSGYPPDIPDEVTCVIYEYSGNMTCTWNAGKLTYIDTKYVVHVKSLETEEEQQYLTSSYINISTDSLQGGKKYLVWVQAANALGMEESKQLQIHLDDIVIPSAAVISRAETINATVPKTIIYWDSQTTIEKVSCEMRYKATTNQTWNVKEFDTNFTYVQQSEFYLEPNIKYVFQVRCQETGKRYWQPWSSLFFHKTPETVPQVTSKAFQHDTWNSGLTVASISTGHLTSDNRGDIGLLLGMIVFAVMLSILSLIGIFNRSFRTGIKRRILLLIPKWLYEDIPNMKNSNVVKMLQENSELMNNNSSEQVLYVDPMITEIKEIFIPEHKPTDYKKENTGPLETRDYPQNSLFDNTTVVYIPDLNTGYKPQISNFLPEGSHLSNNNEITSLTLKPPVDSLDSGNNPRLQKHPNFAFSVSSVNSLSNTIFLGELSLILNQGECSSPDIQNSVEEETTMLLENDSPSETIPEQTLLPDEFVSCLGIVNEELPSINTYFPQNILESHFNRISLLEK
Test: cell-based or functional assay
Starred links: 1 amine or outer side, 2 acyl side, 3 side chain; linkers in the order of their positions; H or OH if unused. Positions of bridges follow the written chain, without caps; N, C: chain ends. Non-standard residues stand in square brackets, D forms with d. No end group written: not given here. X3 = 4‑(2-(4-(2-amino-2-carboxyethyl)phenoxy)ethyl)‑4‑methylmorpholin‑4‑ium, C[N+]1(CCOc2ccc(CC(N[*:1])C(=O)[*:2])cc2)CCOCC1; Trp(7-(3-AcNH-Ph)) = CC(=O)Nc1cccc(-c2cccc3c(C[C@H](N)C(=O)O)c[nH]c23)c1; 2Nal(6-OH) = N[C@@H](Cc1ccc2cc(O)ccc2c1)C(=O)O; Trp(7-Me) = Cc1cccc2c(C[C@H](N)C(=O)O)c[nH]c12; AEF = NCCOc1ccc(C[C@H](N)C(=O)O)cc1; 3Pal = N[C@@H](Cc1cccnc1)C(=O)O; Pen = CC(C)(S)[C@H](N)C(=O)O; Thp = NC1(C(=O)O)CCOCC1; Sar = CNCC(=O)O
readout type: PBMC pSTAT3 IC50

Worked set:
R[Pen]NT[Trp(7-(3-AcNH-Ph))]K(Ac)[Pen][X3][2Nal(6-OH)][Thp]ENH[Sar] (disulfide 2-7 (inferred); ends not checked) [SEQ ID NO: 64]
< 1 nM
[Pen]NT[Trp(7-Me)]K(Ac)[Pen][AEF][2Nal(6-OH)][Thp]K(Ac)N[3Pal][Sar]K (disulfide 1-6 (inferred); ends not checked; also: K14: lipidated lysine, lipid not given here) [SEQ ID NO: 139]
< 0.1 nM

Attention now turns to another entry.
# input Fill in: PBMC pSTAT3 IC50 of R[Pen]NT[Trp(7-Me)]K(Ac)[Pen][5‑(4-(2-amino-2-carboxyethyl)phenoxy)‑N,N,N‑trimethylpentan‑1‑aminium][2Nal(6-OH)][Thp]K(Ac)N[3Pal][Sar] (disulfide 2-7 (inferred); ends not checked) [SEQ ID NO: 58] is ___
# output < 0.1 nM
